Each recorded value in this set is attributed to paper PMC9089363.

Examples of molecules with documented cloud p.t Tcl follow.
# run.description: Cloud point (TCl) determination
# Format: physicochemical
# study.conditions: 2500 ppm aqueous solution, heated ca. 5 °C/min up to 95 °C
# Experimental: A 2500 ppm aqueous solution of each citramide derivative was heated slowly (ca. 5 °C/min), and the first sign of clouding of the solution at a certain temperature was denoted as the cloud point. Any solution that was already opaque at room temperature was first kept in a cooling room at 0–5 °C overnight before heating. Each measurement was repeated at least three times to check the reproducibility of the cloud point.

CCCNC(=O)CC(O)(CC(=O)NCCC)C(=O)NCCC = >95 °C

Lab note: next molecule to report on.
Ask | Can you look up the measured cloud p.t Tcl of CCCNC(=O)CC(CC(=O)NCCC)(OC(=O)CC(=O)OC(CC(=O)NCCC)(CC(=O)NCCC)C(=O)NCCC)C(=O)NCCC for me?
Reply | >95 °C
